Test: Biodistribution in Daudi lymphoma xenograft bearing SCID mice
Format: in vivo, mouse
Details: female, CB-17 SCID, mouse, stomach, iv, total radioactivity, co-injection of 50 μg AMD3100, n = 3, 1.5 h p.i., mean ± SD; read-out: Stomach uptake
Square brackets hold non-standard residues; d marks the D form. Side chains are listed from the residue outwards. Peptide text beside a SMILES is read from it. * marks the point of attachment. NOTA = O=C(O)CN1CCN(CC(=O)O)CCN(CC(=O)*)CC1; 2Nal = N[C@@H](Cc1ccc2ccccc2c1)C(=O)O; dNMeOrn = CN[C@H](CCCN)C(=O)O; 4Amb = NCc1ccc(C(=O)O)cc1
outcome measure: tissue uptake at 1.5 h (%ID/g)
Enter your answer as a number in %ID/g; do not include the unit.

Please fill in: tissue uptake at 1.5 h reported for CN1C(=O)[C@@H](Cc2ccc(O)cc2)NC(=O)CNC(=O)[C@H](Cc2ccc3ccccc3c2)NC(=O)[C@H](CCCNC(=N)N)NC(=O)[C@H]1CCCNC(=O)c1ccc(CNC(=O)CN2CCN(CC(=O)O)CCN(CC(=O)O)CC2)cc1 [[^68Ga]NOTA-pentixafor, metal not drawn] (cyclo([2Nal]G[dY][dNMeOrn]([4Amb-NOTA])R)) = 0.58

----------
Experiment: Biodistribution in Daudi lymphoma xenograft bearing SCID mice
Format: in vivo, mouse
Details: female, CB-17 SCID, mouse, pancreas, iv, 15.2 MBq, total radioactivity, tracer only, i.v., 1.5 h p.i., mean ± SD; read-out: Pancreas uptake
Square brackets hold non-standard residues; d marks the D form. Side chains are listed from the residue outwards. Peptide text beside a SMILES is read from it. * marks the point of attachment. DOTA = O=C(O)CN1CCN(CC(=O)O)CCN(CC(=O)*)CCN(CC(=O)O)CC1; NOTA = O=C(O)CN1CCN(CC(=O)O)CCN(CC(=O)*)CC1; 2Nal = N[C@@H](Cc1ccc2ccccc2c1)C(=O)O; dNMeOrn = CN[C@H](CCCN)C(=O)O; 4Amb = NCc1ccc(C(=O)O)cc1
outcome measure: tissue uptake at 1.5 h (%ID/g)
Only the number, expressed in %ID/g, is required.

| compound | reported value |
| --- | --- |
| CN1C(=O)[C@@H](Cc2ccc(O)cc2)NC(=O)CNC(=O)[C@H](Cc2ccc3ccccc3c2)NC(=O)[C@H](CCCNC(=N)N)NC(=O)[C@H]1CCCNC(=O)c1ccc(CNC(=O)CN2CCN(CC(=O)O)CCN(CC(=O)O)CC2)cc1 [[^68Ga]NOTA-pentixafor, metal not drawn] (cyclo([2Nal]G[dY][dNMeOrn]([4Amb-NOTA])R)) | 0.12 |

Field: next compound
// recorded tissue uptake at 1.5 h for CN1C(=O)[C@@H](Cc2ccc(O)cc2)NC(=O)CNC(=O)[C@H](Cc2ccc3ccccc3c2)NC(=O)[C@H](CCCNC(=N)N)NC(=O)[C@H]1CCCNC(=O)c1ccc(CNC(=O)CN2CCN(CC(=O)O)CCN(CC(=O)O)CCN(CC(=O)O)CC2)cc1 [[^68Ga]pentixafor, metal not drawn] (cyclo([dY][dNMeOrn]([4Amb-DOTA])R[2Nal]G)) : 1.06

----------
Below, each entry is listed with its recorded tissue uptake at 1.5 h.
Test: Biodistribution in Daudi lymphoma xenograft bearing SCID mice
Type: in vivo, mouse
Details: female, CB-17 SCID, mouse, heart, iv, 15.2 MBq, total radioactivity, tracer only, i.v., 1.5 h p.i., mean ± SD; read-out: Heart uptake
Square brackets hold non-standard residues; d marks the D form. Side chains are listed from the residue outwards. Peptide text beside a SMILES is read from it. * marks the point of attachment. DOTA = O=C(O)CN1CCN(CC(=O)O)CCN(CC(=O)*)CCN(CC(=O)O)CC1; NOTA = O=C(O)CN1CCN(CC(=O)O)CCN(CC(=O)*)CC1; 2Nal = N[C@@H](Cc1ccc2ccccc2c1)C(=O)O; dNMeOrn = CN[C@H](CCCN)C(=O)O; 4Amb = NCc1ccc(C(=O)O)cc1
Value expressed in %ID/g; do not type the unit.

| molecule | outcome measure | reported value |
| --- | --- | --- |
| CN1C(=O)[C@@H](Cc2ccc(O)cc2)NC(=O)CNC(=O)[C@H](Cc2ccc3ccccc3c2)NC(=O)[C@H](CCCNC(=N)N)NC(=O)[C@H]1CCCNC(=O)c1ccc(CNC(=O)CN2CCN(CC(=O)O)CCN(CC(=O)O)CC2)cc1 [[^68Ga]NOTA-pentixafor, metal not drawn] (cyclo([2Nal]G[dY][dNMeOrn]([4Amb-NOTA])R)) | tissue uptake at 1.5 h | 0.34 |

Attention now turns to another entry.
Lab book: tissue uptake at 1.5 h of CN1C(=O)[C@@H](Cc2ccc(O)cc2)NC(=O)CNC(=O)[C@H](Cc2ccc3ccccc3c2)NC(=O)[C@H](CCCNC(=N)N)NC(=O)[C@H]1CCCNC(=O)c1ccc(CNC(=O)CN2CCN(CC(=O)O)CCN(CC(=O)O)CCN(CC(=O)O)CC2)cc1 [[^68Ga]pentixafor, metal not drawn] (cyclo([dY][dNMeOrn]([4Amb-DOTA])R[2Nal]G)) noted as 0.58

----------
Assay: Biodistribution in Daudi lymphoma xenograft bearing SCID mice
Type: in vivo, mouse
Conditions: female, CB-17 SCID, mouse, adrenals, iv, total radioactivity, co-injection of 50 μg AMD3100, n = 3, 1.5 h p.i., mean ± SD; read-out: Adrenals uptake
Square brackets hold non-standard residues; d marks the D form. Side chains are listed from the residue outwards. Peptide text beside a SMILES is read from it. * marks the point of attachment. NOTA = O=C(O)CN1CCN(CC(=O)O)CCN(CC(=O)*)CC1; 2Nal = N[C@@H](Cc1ccc2ccccc2c1)C(=O)O; dNMeOrn = CN[C@H](CCCN)C(=O)O; 4Amb = NCc1ccc(C(=O)O)cc1
outcome measure: tissue uptake at 1.5 h (%ID/g)
Provide the reading as a plain figure in %ID/g.

Lookup result for CN1C(=O)[C@@H](Cc2ccc(O)cc2)NC(=O)CNC(=O)[C@H](Cc2ccc3ccccc3c2)NC(=O)[C@H](CCCNC(=N)N)NC(=O)[C@H]1CCCNC(=O)c1ccc(CNC(=O)CN2CCN(CC(=O)O)CCN(CC(=O)O)CC2)cc1 [[^68Ga]NOTA-pentixafor, metal not drawn] (cyclo([2Nal]G[dY][dNMeOrn]([4Amb-NOTA])R)) ; measured tissue uptake at 1.5 h: 0.48

----------
Assay: Biodistribution in Daudi lymphoma xenograft bearing SCID mice
Assay type: in vivo, mouse
Details: female, CB-17 SCID, mouse, muscle, iv, total radioactivity, co-injection of 50 μg AMD3100, n = 3, 1.5 h p.i., mean ± SD; read-out: Muscle uptake
Square brackets hold non-standard residues; d marks the D form. Side chains are listed from the residue outwards. Peptide text beside a SMILES is read from it. * marks the point of attachment. NOTA = O=C(O)CN1CCN(CC(=O)O)CCN(CC(=O)*)CC1; 2Nal = N[C@@H](Cc1ccc2ccccc2c1)C(=O)O; dNMeOrn = CN[C@H](CCCN)C(=O)O; 4Amb = NCc1ccc(C(=O)O)cc1
outcome measure: tissue uptake at 1.5 h (%ID/g)
Provide the reading as a plain figure in %ID/g.

get_value(item= CN1C(=O)[C@@H](Cc2ccc(O)cc2)NC(=O)CNC(=O)[C@H](Cc2ccc3ccccc3c2)NC(=O)[C@H](CCCNC(=N)N)NC(=O)[C@H]1CCCNC(=O)c1ccc(CNC(=O)CN2CCN(CC(=O)O)CCN(CC(=O)O)CC2)cc1 [[^68Ga]NOTA-pentixafor, metal not drawn] (cyclo([2Nal]G[dY][dNMeOrn]([4Amb-NOTA])R)) , readout=tissue uptake at 1.5 h) returns 0.13

----------
Assay: Biodistribution in Daudi lymphoma xenograft bearing SCID mice
Assay type: in vivo, mouse
Conditions: female, CB-17 SCID, mouse, lung, iv, total radioactivity, co-injection of 50 μg AMD3100, n = 3, 1.5 h p.i., mean ± SD; read-out: Lung uptake
Square brackets hold non-standard residues; d marks the D form. Side chains are listed from the residue outwards. Peptide text beside a SMILES is read from it. * marks the point of attachment. NOTA = O=C(O)CN1CCN(CC(=O)O)CCN(CC(=O)*)CC1; 2Nal = N[C@@H](Cc1ccc2ccccc2c1)C(=O)O; dNMeOrn = CN[C@H](CCCN)C(=O)O; 4Amb = NCc1ccc(C(=O)O)cc1
outcome measure: tissue uptake at 1.5 h (%ID/g)
Give the value in %ID/g but do not write %ID/g after it.

Lab note: measured tissue uptake at 1.5 h of CN1C(=O)[C@@H](Cc2ccc(O)cc2)NC(=O)CNC(=O)[C@H](Cc2ccc3ccccc3c2)NC(=O)[C@H](CCCNC(=N)N)NC(=O)[C@H]1CCCNC(=O)c1ccc(CNC(=O)CN2CCN(CC(=O)O)CCN(CC(=O)O)CC2)cc1 [[^68Ga]NOTA-pentixafor, metal not drawn] (cyclo([2Nal]G[dY][dNMeOrn]([4Amb-NOTA])R)) was 0.95
